- Tested on: HCC827 cells (EGFR Exon19 del, non-small cell lung cancer cells)
- Experiment: Cell viability assay (WST/CCK8), HCC827 cells
- Type: cell-based
- Applied Conditions: Homo sapiens, HCC827, 72 h, HCC827 (Exon19 Del), 72 hours, WST (CCK8); read-out: IC50 (half inhibitory concentration)
Recorded Metric: IC50 (nM)

Would you please look over these solved cases?
{"Compound": "COc1cc2ncnc(Nc3ccc(F)c(Cl)c3)c2cc1NC(=O)/C=C/CN1CCC(N2CCN(C(=O)CCCCCSc3cccc4c3C(=O)N(C3CCC(=O)NC3=O)C4=O)CC2)CC1 (centres unmarked)", "IC50 [nM]": 3.3}
{"Compound": "COc1cc2ncnc(Nc3ccc(F)c(Cl)c3)c2cc1NC(=O)/C=C/CN1CCN(C(=O)COCCOCCOCCSc2cccc3c2C(=O)N(C2CCC(=O)NC2=O)C3=O)CC1 (centres unmarked)", "IC50 [nM]": 35.5}
{"Compound": "COc1cc2ncnc(Nc3ccc(F)c(Cl)c3)c2cc1NC(=O)/C=C/CN1CCN(C(=O)CCCSc2cccc3c2CN(C2CCC(=O)NC2=O)C3=O)CC1 (centres unmarked)", "IC50 [nM]": 6.7}
{"Compound": "COc1cc2ncnc(Nc3ccc(F)c(Cl)c3)c2cc1NC(=O)/C=C/CN1CCN(C(=O)CCCCC(=O)N[C@H](C(=O)N2C[C@H](O)C[C@H]2C(=O)NCc2ccc(-c3scnc3C)cc2)C(C)(C)C)CC1", "IC50 [nM]": 31.3}
{"Compound": "COc1cc2ncnc(Nc3ccc(F)c(Cl)c3)c2cc1NC(=O)/C=C/CN1CCC(N2CCN(CCCCCCSc3cccc4c3CN(C3CCC(=O)NC3=O)C4=O)CC2)CC1 (centres unmarked)", "IC50 [nM]": 3.1}
{"Compound": "COc1cc2ncnc(Nc3ccc(F)c(Cl)c3)c2cc1NC(=O)/C=C/CN1CCC(N2CCN(C(=O)CCCCCOc3cccc4c3CN(C3CCC(=O)NC3=O)C4=O)CC2)CC1 (centres unmarked)", "IC50 [nM]": 1.1}
{"Compound": "COc1cc2ncnc(Nc3ccc(F)c(Cl)c3)c2cc1NC(=O)/C=C/CN1CCC(NC(=O)CCCCCCNc2cccc3c2C(=O)N(C2CCC(=O)NC2=O)C3=O)CC1 (centres unmarked)", "IC50 [nM]": 3}
{"Compound": "COc1cc2ncnc(Nc3ccc(F)c(Cl)c3)c2cc1NC(=O)/C=C/CN1CCC(NC(=O)CCCCCCSc2cccc3c2CN(C2CCC(=O)NC2=O)C3=O)CC1 (centres unmarked)", "IC50 [nM]": 4}

a. COc1cc2ncnc(Nc3ccc(F)c(Cl)c3)c2cc1NC(=O)/C=C/CN1CCC(NC(=O)CCCNc2cccc3c2C(=O)N(C2CCC(=O)NC2=O)C3=O)CC1 (centres unmarked)
b. COc1cc2ncnc(Nc3ccc(F)c(Cl)c3)c2cc1NC(=O)/C=C/CN1CCN(C(=O)COCCSc2cccc3c2C(=O)N(C2CCC(=O)NC2=O)C3=O)CC1 (centres unmarked)
Smaller IC50 value? Options are a and b Lab note: record the label of whichever item you select.
a

###

- System: BT474 cells (HER2 positive breast cancer cells)
- Experiment: Cell viability assay (CCK8), BT474 cells
- Format: cell-based
- Applied Conditions: Homo sapiens, BT-474, Table 10, BT474, 72 hours, read-out: IC50 (half inhibitory concentration)
- Excerpt: The cell lines with abnormal EGFR expression used are as follows: • HCC827 cells (EGFR Exon19 del, non-small cell lung cancer cells); • PC9 cells (EGFR Exon 19 del, non-small cell lung cancer cells); • PC9BracA1 (EGFR Exon 19 del+T790M, non-small cell lung cancer cells) • H1975 (EGFR Exon T790M+L858R mutation, non-small cell lung cancer cell line) • BT474 cells (HER2 positive breast cancer cells) […]
Recorded Metric: IC50 (µM)

{"Compound": "C=CC(=O)Nc1cc2c(Nc3ccc(F)c(Cl)c3)ncnc2cc1OCCCN1CCC(N2CCN(C(=O)CNc3cccc4c3C(=O)N(C3CCC(=O)NC3=O)C4=O)CC2)CC1 (stereo not shown)", "Assay Target": "BT474 cells (HER2 positive breast cancer cells)", "Recorded Metric": "IC50", "Measure Unit": "µM", "Recorded Measurement": 0.0082}
{"Compound": "COc1cc2ncnc(Nc3ccc(F)c(Cl)c3)c2cc1NC(=O)/C=C/CN1CCC(N2CCNCC2)CC1", "Assay Target": "BT474 cells (HER2 positive breast cancer cells)", "Recorded Metric": "IC50", "Measure Unit": "µM", "Recorded Measurement": 0.0326}
{"Compound": "C=CC(=O)Nc1cc2c(Nc3ccc(F)c(Cl)c3)ncnc2cc1OCCCN1CCC(N2CCN(CCCCCCNc3cccc4c3C(=O)N(C3CCC(=O)NC3=O)C4=O)CC2)CC1 (stereo not shown)", "Assay Target": "BT474 cells (HER2 positive breast cancer cells)", "Recorded Metric": "IC50", "Measure Unit": "µM", "Recorded Measurement": 0.0119}
{"Compound": "COc1cc2ncnc(Nc3ccc(F)c(Cl)c3)c2cc1NC(=O)/C=C/CN1CCC(N2CCN(C(=O)CCCCCCSc3cccc4c3C(=O)N(C3CCC(=O)NC3=O)C4=O)CC2)CC1 (stereo not shown)", "Assay Target": "BT474 cells (HER2 positive breast cancer cells)", "Recorded Metric": "IC50", "Measure Unit": "µM", "Recorded Measurement": 0.0007}
{"Compound": "COc1cc2ncnc(Nc3ccc(F)c(Cl)c3)c2cc1NC(=O)/C=C/CN1CCC(NC(=O)CCNc2cccc3c2C(=O)N(C2CCC(=O)NC2=O)C3=O)CC1 (stereo not shown)", "Assay Target": "BT474 cells (HER2 positive breast cancer cells)", "Recorded Metric": "IC50", "Measure Unit": "µM", "Recorded Measurement": 0.0525}

I. C=CC(=O)Nc1cc2c(Nc3ccc(F)c(Cl)c3)ncnc2cc1OCCCN1CCN(C(=O)CCCCCNc2cccc3c2C(=O)N(C2CCC(=O)NC2=O)C3=O)CC1 (stereo not shown)
II. COc1cc2ncnc(Nc3ccc(F)c(Cl)c3)c2cc1NC(=O)/C=C/CN1CCC(NC(=O)CCCCSc2cccc3c2CN(C2CCC(=O)NC2=O)C3=O)CC1 (stereo not shown)
Hi there! Just curious which has the higher IC50 between I and II . Which one? Tell me its label.
II

I. COc1cc2ncnc(Nc3ccc(F)c(Cl)c3)c2cc1NC(=O)/C=C/CN1CCC(NCCCC#Cc2cccc3c2CN(C2CCC(=O)NC2=O)C3=O)CC1 (stereo not shown)
II. C=CC(=O)Nc1cc2c(Nc3ccc(F)c(Cl)c3)ncnc2cc1OCCCN1CCN(C(=O)CCCCCCNc2cccc3c2C(=O)N(C2CCC(=O)NC2=O)C3=O)CC1 (stereo not shown)
III. COc1cc2ncnc(Nc3ccc(Cl)c(Cl)c3F)c2cc1OC1CCN(C(=O)CNc2cccc3c2C(=O)N(C2CCC(=O)NC2=O)C3=O)CC1 (stereo not shown)
Ascending by IC50, please. Note for the reader: the ranking is given by listing the labels in the order requested.
II, III, I
(II: 0.0176 µM, III: 0.0359 µM, I: 0.083 µM)

meta.source: patent US12564638B2
